- TEST SUMMARY: Drug level in epithelial lining fluid of lung transplant recipient invasive aspergillosis patient at 150 mg, iv QD for 4 consecutive days measured after 5 hrs post last dose by HPLC
- Assay type: ADME, organism-based
- ASSAY CONTEXT: human, read-out: Drug uptake
Numbered stars: 1 amine (or outer) side, 2 acyl side, 3 side chain; on linkers, the order of the positions; unused ones are H or OH. Bridge positions count the residues as written; N and C are the ends. Square brackets hold non-standard residues; d marks the D form. Peptide text beside a SMILES is read from it. * marks the point of attachment. hTyr(3S-OH,4S-OH,3'-OSO3H) = N[C@H](C(=O)O)[C@H](O)[C@@H](O)c1ccc(O)c(OS(=O)(=O)O)c1; Orn(4R-OH,5R-OH) = O=C([C@H](C[C@@H](O)[C@@H](O)N[*:3])N[*:1])[*:2]; Pro(3S-OH,4S-Me) = C[C@H]1CN[C@H](C(=O)O)[C@H]1O; X1 = CCCCCOc1ccc(-c2cc(-c3ccc(C(=O)*)cc3)no2)cc1; Gln(3R-OH) = NC(=O)C[C@@H](O)[C@H](N)C(=O)O; Hyp = O=C(O)[C@@H]1C[C@@H](O)CN1
MEASURED ENDPOINT: concentration at 5 h (ng/mL)

{"COMPOUND": "CCCCCOc1ccc(-c2cc(-c3ccc(C(=O)N[C@H]4C[C@@H](O)[C@@H](O)NC(=O)[C@@H]5[C@@H](O)[C@@H](C)CN5C(=O)[C@H]([C@H](O)CC(N)=O)NC(=O)[C@H]([C@H](O)[C@@H](O)c5ccc(O)c(OS(=O)(=O)O)c5)NC(=O)[C@@H]5C[C@@H](O)CN5C(=O)[C@H]([C@@H](C)O)NC4=O)cc3)no2)cc1 [MICAFUNGIN] (X1-[Orn(4R-OH,5R-OH)]T[Hyp][hTyr(3S-OH,4S-OH,3'-OSO3H)][Gln(3R-OH)][Pro(3S-OH,4S-Me)]; lactam 1-C)", "RESULT NUMBER": 690}

----------
- TEST SUMMARY: Tmax in alveolar cells of lung transplant recipient invasive aspergillosis patient at 150 mg, iv QD for 4 consecutive days by HPLC
- Format: ADME, organism-based, Pneumocyte
- ASSAY CONTEXT: human
Numbered stars: 1 amine (or outer) side, 2 acyl side, 3 side chain; on linkers, the order of the positions; unused ones are H or OH. Bridge positions count the residues as written; N and C are the ends. Square brackets hold non-standard residues; d marks the D form. Peptide text beside a SMILES is read from it. * marks the point of attachment. hTyr(3S-OH,4S-OH,3'-OSO3H) = N[C@H](C(=O)O)[C@H](O)[C@@H](O)c1ccc(O)c(OS(=O)(=O)O)c1; Orn(4R-OH,5R-OH) = O=C([C@H](C[C@@H](O)[C@@H](O)N[*:3])N[*:1])[*:2]; Pro(3S-OH,4S-Me) = C[C@H]1CN[C@H](C(=O)O)[C@H]1O; X1 = CCCCCOc1ccc(-c2cc(-c3ccc(C(=O)*)cc3)no2)cc1; Gln(3R-OH) = NC(=O)C[C@@H](O)[C@H](N)C(=O)O; Hyp = O=C(O)[C@@H]1C[C@@H](O)CN1
MEASURED ENDPOINT: Tmax

{"COMPOUND": "CCCCCOc1ccc(-c2cc(-c3ccc(C(=O)N[C@H]4C[C@@H](O)[C@@H](O)NC(=O)[C@@H]5[C@@H](O)[C@@H](C)CN5C(=O)[C@H]([C@H](O)CC(N)=O)NC(=O)[C@H]([C@H](O)[C@@H](O)c5ccc(O)c(OS(=O)(=O)O)c5)NC(=O)[C@@H]5C[C@@H](O)CN5C(=O)[C@H]([C@@H](C)O)NC4=O)cc3)no2)cc1 [MICAFUNGIN] (X1-[Orn(4R-OH,5R-OH)]T[Hyp][hTyr(3S-OH,4S-OH,3'-OSO3H)][Gln(3R-OH)][Pro(3S-OH,4S-Me)]; lactam 1-C)", "MEASURED ENDPOINT": "Tmax", "RESULT": "17.9 h"}

----------
- TEST SUMMARY: Ratio of drug level in alveolar cell to plasma of lung transplant recipient invasive aspergillosis patient at 150 mg, iv single dose measured after 5 hrs post dose
- ASSAY CONTEXT: human, alveolar cells / plasma
Numbered stars: 1 amine (or outer) side, 2 acyl side, 3 side chain; on linkers, the order of the positions; unused ones are H or OH. Bridge positions count the residues as written; N and C are the ends. Square brackets hold non-standard residues; d marks the D form. Peptide text beside a SMILES is read from it. * marks the point of attachment. hTyr(3S-OH,4S-OH,3'-OSO3H) = N[C@H](C(=O)O)[C@H](O)[C@@H](O)c1ccc(O)c(OS(=O)(=O)O)c1; Orn(4R-OH,5R-OH) = O=C([C@H](C[C@@H](O)[C@@H](O)N[*:3])N[*:1])[*:2]; Pro(3S-OH,4S-Me) = C[C@H]1CN[C@H](C(=O)O)[C@H]1O; X1 = CCCCCOc1ccc(-c2cc(-c3ccc(C(=O)*)cc3)no2)cc1; Gln(3R-OH) = NC(=O)C[C@@H](O)[C@H](N)C(=O)O; Hyp = O=C(O)[C@@H]1C[C@@H](O)CN1
MEASURED ENDPOINT: Kp at 5 h

{"COMPOUND": "CCCCCOc1ccc(-c2cc(-c3ccc(C(=O)N[C@H]4C[C@@H](O)[C@@H](O)NC(=O)[C@@H]5[C@@H](O)[C@@H](C)CN5C(=O)[C@H]([C@H](O)CC(N)=O)NC(=O)[C@H]([C@H](O)[C@@H](O)c5ccc(O)c(OS(=O)(=O)O)c5)NC(=O)[C@@H]5C[C@@H](O)CN5C(=O)[C@H]([C@@H](C)O)NC4=O)cc3)no2)cc1 [MICAFUNGIN] (X1-[Orn(4R-OH,5R-OH)]T[Hyp][hTyr(3S-OH,4S-OH,3'-OSO3H)][Gln(3R-OH)][Pro(3S-OH,4S-Me)]; lactam 1-C)", "RESULT NUMBER": 0.61}

----------
- TEST SUMMARY: AUC (0 to 24 hrs) in lung transplant recipient invasive aspergillosis patient plasma at 150 mg, iv administered as single dose
- Type: ADME, organism-based
- Set-up: dose 150 mg, time < 24 hr, route intravenous
- ASSAY CONTEXT: human
Numbered stars: 1 amine (or outer) side, 2 acyl side, 3 side chain; on linkers, the order of the positions; unused ones are H or OH. Bridge positions count the residues as written; N and C are the ends. Square brackets hold non-standard residues; d marks the D form. Peptide text beside a SMILES is read from it. * marks the point of attachment. hTyr(3S-OH,4S-OH,3'-OSO3H) = N[C@H](C(=O)O)[C@H](O)[C@@H](O)c1ccc(O)c(OS(=O)(=O)O)c1; Orn(4R-OH,5R-OH) = O=C([C@H](C[C@@H](O)[C@@H](O)N[*:3])N[*:1])[*:2]; Pro(3S-OH,4S-Me) = C[C@H]1CN[C@H](C(=O)O)[C@H]1O; X1 = CCCCCOc1ccc(-c2cc(-c3ccc(C(=O)*)cc3)no2)cc1; Gln(3R-OH) = NC(=O)C[C@@H](O)[C@H](N)C(=O)O; Hyp = O=C(O)[C@@H]1C[C@@H](O)CN1
MEASURED ENDPOINT: AUC(0-t) at 24 h

{"COMPOUND": "CCCCCOc1ccc(-c2cc(-c3ccc(C(=O)N[C@H]4C[C@@H](O)[C@@H](O)NC(=O)[C@@H]5[C@@H](O)[C@@H](C)CN5C(=O)[C@H]([C@H](O)CC(N)=O)NC(=O)[C@H]([C@H](O)[C@@H](O)c5ccc(O)c(OS(=O)(=O)O)c5)NC(=O)[C@@H]5C[C@@H](O)CN5C(=O)[C@H]([C@@H](C)O)NC4=O)cc3)no2)cc1 [MICAFUNGIN] (X1-[Orn(4R-OH,5R-OH)]T[Hyp][hTyr(3S-OH,4S-OH,3'-OSO3H)][Gln(3R-OH)][Pro(3S-OH,4S-Me)]; lactam 1-C)", "RESULT": "79200 ng·h/mL"}

----------
- TEST SUMMARY: Drug level in epithelial lining fluid of lung transplant recipient invasive aspergillosis patient at 150 mg, iv single dose measured after 5 hrs post dose by HPLC
- ASSAY CONTEXT: human, read-out: Drug uptake
Numbered stars: 1 amine (or outer) side, 2 acyl side, 3 side chain; on linkers, the order of the positions; unused ones are H or OH. Bridge positions count the residues as written; N and C are the ends. Square brackets hold non-standard residues; d marks the D form. Peptide text beside a SMILES is read from it. * marks the point of attachment. hTyr(3S-OH,4S-OH,3'-OSO3H) = N[C@H](C(=O)O)[C@H](O)[C@@H](O)c1ccc(O)c(OS(=O)(=O)O)c1; Orn(4R-OH,5R-OH) = O=C([C@H](C[C@@H](O)[C@@H](O)N[*:3])N[*:1])[*:2]; Pro(3S-OH,4S-Me) = C[C@H]1CN[C@H](C(=O)O)[C@H]1O; X1 = CCCCCOc1ccc(-c2cc(-c3ccc(C(=O)*)cc3)no2)cc1; Gln(3R-OH) = NC(=O)C[C@@H](O)[C@H](N)C(=O)O; Hyp = O=C(O)[C@@H]1C[C@@H](O)CN1

{"COMPOUND": "CCCCCOc1ccc(-c2cc(-c3ccc(C(=O)N[C@H]4C[C@@H](O)[C@@H](O)NC(=O)[C@@H]5[C@@H](O)[C@@H](C)CN5C(=O)[C@H]([C@H](O)CC(N)=O)NC(=O)[C@H]([C@H](O)[C@@H](O)c5ccc(O)c(OS(=O)(=O)O)c5)NC(=O)[C@@H]5C[C@@H](O)CN5C(=O)[C@H]([C@@H](C)O)NC4=O)cc3)no2)cc1 [MICAFUNGIN] (X1-[Orn(4R-OH,5R-OH)]T[Hyp][hTyr(3S-OH,4S-OH,3'-OSO3H)][Gln(3R-OH)][Pro(3S-OH,4S-Me)]; lactam 1-C)", "UNIT STRING": "ng/mL", "concentration at 5 h": 710}
